target: h-GABA-A α5β3γ2 (Homo sapiens (Human), UniProt P18507+P31644); assay: Two-electrode voltage clamp electrophysiology in Xenopus oocytes expressing GABAA receptors, modulation of GABA EC20 current; format: cell-based; settings: % modulation of GABA EC20 = 100*(Fold increase−1), Xenopus oocytes
Recorded Efficacy (GABA) % values for a group of compounds are listed next.
Hi! Could you send only the number? It should be in %, unit omitted.

> print(dat)
                                   compound  recordedvalue
1  CCC[C@@H](CO)N1Cc2cc(OCc3c(-c4ccc(C)nc4)noc3C)ncc2C1=O [Example 13]            158
2  Cc1ccc(-c2noc(C)c2COc2ccc(C(=O)N[C@@H]3CCOC[C@H]3O)cn2)cn1 [Example 134]             66
3  Cc1ccc(-c2noc(C)c2COc2cnc(C(=O)NC3CCS(=O)(=O)CC3)cn2)cn1 [Example 72]            130
4  Cc1ccc(-c2noc(C)c2COc2ccc(C(=O)N[C@@H]3CCOC[C@@H]3C)nn2)cn1 [Example 52]             67
5  Cc1ccc(-c2noc(C3CC3)c2COc2ccc(C(=O)NC3CCOCC3)nn2)cn1 [Example 183]            213
6  CO[C@H]1C[C@H](NC(=O)c2ccc(OCc3c(-c4ccc(C)nc4)noc3C)nn2)C1 [Example 163]             98

What value of Efficacy (GABA) % has been reported for the following compound? Cc1ccc(-c2noc(C)c2COc2ccc(C(=O)NC(C)(C)C(F)(F)F)nn2)cn1 [Example 64]
86

One more compound: Cc1ccc(-c2noc(C)c2COc2cc3c(cn2)C(=O)N(C2CCC(F)(F)CC2)C3)cn1 [Example 96]
88

---

Recorded pKi values for a group of compounds are listed next.
biological target: h-GABA-A α5β3γ2 (Homo sapiens (Human), UniProt P18507+P31644); assay: [3H]flumazenil competition binding assay, membranes of HEK293 cells expressing human GABAA receptors; conditions: displacement of [3H]flumazenil 0.5 nM, HEK293 cells expressing human receptors, mean of two determinations; read-out: Ki h-GABA-A α5β3γ2
Value format note: pKi is -log10 of concentration (mol/L); just state the number.

Example entries and their recorded answers appear below.
> print(dat)
                               linenotation  recordedvalue
1  Cc1ccc(-c2noc(C)c2COc2ccc(C(=O)N3CCC3)nn2)cn1           8.14
2  Cc1ccc(-c2noc(C)c2COc2ccc(C(=O)N3CC(C)(F)C3)nn2)cn1           7.93
3  Cc1ccc(-c2noc(CF)c2COc2ccc(C(=O)NC3(C(F)(F)F)CC3)nn2)cn1           7.29
4  COc1ccc(-c2noc(C)c2COc2ccc(C(=O)NC3CCOCC3)cn2)cn1           7.60
5  Cc1ccc(-c2noc(C3CC3)c2COc2ccc(C(=O)NC3CCOCC3)cn2)cn1           7.27
6  Cc1ccc(-c2noc(C)c2COc2cc3c(cn2)C(=O)N(C2CCSCC2)C3)cn1           8.02
7  Cc1ccc(-c2noc(C)c2COc2cnc(C(=O)NC(C)(C)CO)cn2)cn1           7.28

Field: next compound
h-GABA-A α5β3γ2 (Homo sapiens (Human), UniProt P18507+P31644) / pKi / Cc1ccc(-c2noc(C)c2COc2ccc(C(=O)N[C@@H]3CCS(=O)(=O)C3)cn2)cn1 : value?
7.93

---

target: h-GABA-A α5β3γ2 (Homo sapiens (Human), UniProt P18507+P31644); experiment: Two-electrode voltage clamp electrophysiology in Xenopus oocytes expressing GABAA receptors, modulation of GABA EC20 current; format: cell-based; settings: % modulation of GABA EC20 = 100*(Fold increase−1), Xenopus oocytes
measure: Efficacy (GABA) % (%)
Hi! Could you send only the number? It should be in %, unit omitted.

Example entries and their recorded answers appear below.
> print(dat)
                                   compound  readoutunits  recordedvalue
1  Cc1ccc(-c2noc(C)c2COc2ccc(C(=O)N[C@H]3CC4CCC3O4)nn2)cn1 (stereo partly shown)             %             72
2  Cc1ccc(-c2noc(C)c2COc2nnc(C(=O)NC3CCOCC3)cc2C)cn1             %             61
3  Cc1ccc(-c2noc(C)c2COc2cc3c(cn2)C(=O)N(CC(C)C)C3)cn1             %             62
4  Cc1ccc(-c2noc(C)c2COc2ccc(C(=O)NC3CCCOCC3)nn2)cn1 (racemic)             %             88
5  Cc1ccc(-c2noc(C)c2COc2ccc(C(=O)NCC3(O)COC3)nn2)cn1             %             57

h-GABA-A α5β3γ2 (Homo sapiens (Human), UniProt P18507+P31644) / Efficacy (GABA) % / CCO[C@H]1CC[C@H](NC(=O)c2ccc(OCc3c(-c4ccc(C)nc4)noc3C)nn2)CC1 : value?
78

One more compound: Cc1ccc(-c2noc(C)c2COc2ccc(C(=O)NC3CCCC(O)C3)nn2)cn1 (stereo not shown)
98

One more compound: Cc1ccc(-c2noc(C)c2COc2ccc(C(=O)N[C@@]3(C)CCOC3)nn2)cn1 (single isomer, unassigned)
80

One more compound: Cc1ccc(-c2noc(C)c2COc2ccc(C(=O)N3CCOCC3)nn2)cn1
99

One more compound: Cc1ccc(-c2noc(C)c2COc2ccc(C(=O)N[C@@H]3CCCC[C@@H]3O)nn2)cn1
54

One more compound: Cc1ccc(-c2noc(C)c2COc2ccc(C(=O)N3CC(C)(F)C3)nn2)cn1
59

One more compound: Cc1ccc(-c2noc(C)c2COc2ccc(C(=O)N[C@H]3CC[C@@](C)(O)CC3)nn2)cn1
77

One more compound: CCO[C@H]1C[C@H](NC(=O)c2ccc(OCc3c(-c4ccc(C)nc4)noc3C)nn2)C1
65

One more compound: Cc1ccc(-c2noc(C)c2COc2ccc(C(=O)N3CC(O)C3)nn2)cn1
69

One more compound: CO[C@H]1C[C@@H](NC(=O)c2ccc(OCc3c(-c4ccc(C)nc4)noc3C)nn2)C1
95

One more compound: Cc1ccc(-c2noc(C)c2COc2ccc(C(=O)NCC3CC3)cn2)cn1
63

---

Recorded Efficacy (GABA) % values for a group of compounds are listed next.
biological target: h-GABA-A α5β3γ2 (Homo sapiens (Human), UniProt P18507+P31644); experiment: Two-electrode voltage clamp electrophysiology in Xenopus oocytes expressing GABAA receptors, modulation of GABA EC20 current; type: cell-based; conditions: % modulation of GABA EC20 = 100*(Fold increase−1), Xenopus oocytes

Example entries and their recorded answers appear below.
> print(dat)
                                   compound  recordedvalue
1  Cc1ccc(-c2noc(C)c2COc2ccc(C(=O)N[C@@H]3CC[C@@H](O)C3)nn2)cn1 (racemic) [Example 152]            85%
2  Cc1ccc(-c2noc(C)c2COc2ccc(C(=O)NC(C)(CO)CO)nn2)cn1 [Example 147]            48%
3  CCC[C@@H](CO)NC(=O)c1ccc(OCc2c(-c3ccc(C)nn3)noc2C)nc1 [Example 109]            42%
4  Cc1ccc(-c2noc(C)c2COc2ccc(C(=O)N3CC4(C3)CC(F)(F)C4)nn2)cn1 [Example 155]            46%
5  Cc1ccc(-c2noc(C)c2COc2ccc(C(=O)N[C@@H]3C[C@@H]4CC[C@@H]3O4)nn2)cn1 (single isomer, unassigned) [Example 189]            86%
6  Cc1ccc(-c2noc(C3CC3)c2COc2ccc(C(=O)NC3CC4(COC4)C3)nn2)cn1 [Example 181]           147%
7  Cc1ccc(-c2noc(C)c2COc2ccc(C(=O)NC3CCOCC3)nn2)cn1 [Example 8]            97%

Field: next compound
h-GABA-A α5β3γ2 (Homo sapiens (Human), UniProt P18507+P31644) / Efficacy (GABA) % / CCc1onc(-c2ccc(C)nc2)c1COc1ccc(C(=O)NC2CC2)nn1 [Example 123] : value?
106%

---

molecular target: h-GABA-A α5β3γ2 (Homo sapiens (Human), UniProt P18507+P31644); test: [3H]flumazenil competition binding assay, membranes of HEK293 cells expressing human GABAA receptors; conditions: displacement of [3H]flumazenil 0.5 nM, HEK293 cells expressing human receptors, mean of two determinations; read-out: Ki h-GABA-A α5β3γ2
measure: Ki (nM)
Hi! Could you send only the number? It should be in nM, unit omitted.

What value of Ki has been reported for the following molecule? Cc1onc(-c2ccc(C3CC3)nc2)c1COc1ccc(C(=O)NC2CCOCC2)cn1
6.1

One more molecule: Cc1ccc(-c2noc(C)c2COc2ccc(C(=O)N[C@@H]3CCCOC3)nn2)cn1
6.8

One more molecule: Cc1onc(-c2ccc(Cl)nc2)c1COc1ccc(C(=O)NC2CC3(COC3)C2)nn1
11.2

One more molecule: Cc1ccc(-c2noc(C)c2COc2ccc(C(=O)NC(C)(C)C)nn2)cn1
19.4

One more molecule: Cc1ccc(-c2noc(C)c2COc2cc3c(cn2)C(=O)N(CC(C)C)C3)cn1
13.7

One more molecule: Cc1ccc(-c2noc(C)c2COc2cnc(C(=O)NC3CC4(COC4)C3)cn2)cn1
50.6

One more molecule: Cc1ccc(-c2noc(C)c2COc2ccc(C(=O)N[C@H]3CCOC3)nn2)cn1
8.1

One more molecule: CCC[C@@H](CO)NC(=O)c1ccc(OCc2c(-c3ccc(C4CC4)nc3)noc2C)nc1
25.6
